Measurement Target: ErbB3 (UniProt P21860 P21860:20-643)
Sequence (P21860 20-643, one chain of several): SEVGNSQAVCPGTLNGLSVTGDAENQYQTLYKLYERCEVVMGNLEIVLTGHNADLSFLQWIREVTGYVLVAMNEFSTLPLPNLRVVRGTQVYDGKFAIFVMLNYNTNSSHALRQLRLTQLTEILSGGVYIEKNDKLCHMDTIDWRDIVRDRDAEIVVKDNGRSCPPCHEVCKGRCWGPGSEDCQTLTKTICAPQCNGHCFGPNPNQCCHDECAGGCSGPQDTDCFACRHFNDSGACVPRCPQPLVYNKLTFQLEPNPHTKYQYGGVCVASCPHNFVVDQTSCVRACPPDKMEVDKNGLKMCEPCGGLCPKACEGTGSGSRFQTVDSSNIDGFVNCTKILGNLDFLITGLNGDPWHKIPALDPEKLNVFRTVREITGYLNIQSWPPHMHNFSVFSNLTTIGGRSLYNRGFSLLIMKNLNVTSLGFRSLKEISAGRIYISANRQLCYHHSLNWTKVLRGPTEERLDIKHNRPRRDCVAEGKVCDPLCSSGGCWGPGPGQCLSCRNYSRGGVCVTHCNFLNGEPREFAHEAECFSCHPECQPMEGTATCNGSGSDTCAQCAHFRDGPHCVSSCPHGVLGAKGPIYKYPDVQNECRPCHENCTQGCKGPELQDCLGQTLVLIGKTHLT
Procedure Details: SPR; specificity control; printed as about 104 nM, read as 10^4 nM (lost superscript)
Cond: tags: ThermoFisher
pKd: −log10 of the molar value.
The reader will find reported pKd values listed item by item below.

- Binder: "ATK007 (ssRNA, 2'-F on all C and U) RNA: GCGGAAGCGUGCUGGGCCCGGCUUGCAGGUCGCCGAAAUGACCGCACACAUAACCCAGAGGUCGAU"
  Observed Property: "pKd"
  Experimental Value: "~5.00"

Turning now to a further record.
Exercise: For the binder shown here, ATK001 (ssRNA, 2'-F on all C and U) RNA: GGGAGGACGAUGCGGCCACUGGCUAGGAACUCGAGUACUGGGUGGCAGACGACUCGCCCGA , give the reported pKd.
Solution: ~5.00

Reference source: patent US20190323012
